Target: T1, TDP-223 peptide (human)
T1 construct: 8-mer of human TDP-43; same ELISA method as for the biotinylated 15-mers
T1 peptide: PKPFRAFA
Test: indirect ELISA, 8-mer peptide library

binder: ACI-7062-410H3-Ab1 (antibody, IgG1, V domains shown, also called 410H3B9; clone 7) VH: DVQLVESGGGLVQPGGSRRLSCAASGFTFSSFGMHWVRQAPEKGLEWVAYIRSGSDIIYYADSVKGRFTISRDNPENTLFLQMTSLRSEDTAMYYCARSGTTVPFDYWGQGTSLTVSS VL: DIVMTQSPSSLAMSVGQKVTMSCKSSQSLLNSGNQKNYLAWYQQKPGQSPELLLYFASTRASGVPDRFIGSGSGTDFTLTISSVQAEDLADYFCQQHYSIPLTFGAGTKLELKR
binding result: no binding
--
binder: ACI-7062-412E12-Ab1 (antibody, IgG1, V domains shown, also called 412E12A2; clone 10) VH: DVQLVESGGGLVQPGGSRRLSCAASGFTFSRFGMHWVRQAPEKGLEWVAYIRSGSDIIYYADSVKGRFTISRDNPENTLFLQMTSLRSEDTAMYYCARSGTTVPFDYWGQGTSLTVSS VL: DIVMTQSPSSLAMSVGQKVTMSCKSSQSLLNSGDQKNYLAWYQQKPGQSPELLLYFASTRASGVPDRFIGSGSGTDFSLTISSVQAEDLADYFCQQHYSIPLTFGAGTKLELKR
binding result: no binding
--
binder: ACI-7062-415C4-Ab1 (antibody, IgG1, V domains shown, also called 415C4C6; clone 14) VH: QVTLKESGPGILQPSQTLSLTCSFSGFSLSTYGIGVGWIRQPSGKGLEWLAHIWWNDNKYYKTALKSRLTISKDTSNNQVFLKIASVDTADSATYYCARVYGNLYYFGYWGQGTTLTVSS VL: DVLMTQTPLSLPVSLGDQASISCRSSQSIVHSTGNTYLEWYLQKPGQSPKLLIYKVSNRFSGVPDRFSGSGSGTDFTLKISRVEAEDLGVYYCFQGSRVPTFGAGTKLELKR
binding result: no binding

The values you see were collected from patent US20220025023A1.
